# Tested on: OVCAR-8 ovarian
# assay: NCI-60 one-dose screen, 48 h (100 = growth as untreated, 0 = no growth, -100 = all killed)
# experimental context: 10 µM unless noted
Compounds without any hit were thinned out: in the full panel of roughly 83,000, 20% have a hit.
measure: growth (%)
Respond numerically; units are % and should not be typed.

Query block: Which growth value is on record for C#CC#CC#CC#CC#CC#CC#CC#CCC1OCC(COC(=O)O[C@@H](C(=O)O[C@H]2C[C@@]3(O)[C@@H](OC(=O)c4ccccc4)[C@@H]4[C@]5(OC(C)=O)CO[C@@H]5C[C@H](O)[C@@]4(C)C(=O)[C@H](OC(C)=O)C(=C2C)C3(C)C)[C@@H](NC(=O)c2ccccc2)c2ccccc2)O1 (stereo partly drawn) ?
Result block: 14.8

Query block: Which growth value is on record for CC(/C=C1\SC(=S)N(CC(=O)NC(Cc2c[nH]c3ccccc23)C(=O)O)C1=O)=C\c1ccccc1 (stereo not drawn) ?
Result block: 100

Query block: Which growth value is on record for O=C(CCCCCCN1CC(=O)N2[C@@H](c3ccc(Cl)cc3)c3[nH]c4ccccc4c3C[C@H]2C1=O)NO ?
Result block: 57.7

---

# Tested on: MCF7 breast
# assay: NCI-60 one-dose screen, 48 h
# experimental context: 10 µM unless noted
Compounds without any hit were thinned out: in the full panel of roughly 83,000, 20% have a hit. Activity calls are given as the source filed them. The calls were made as follows: active = growth percent below 10; inactive = the rest.
Entry note: the call must match one of active, inactive

Query block: Which outcome was assigned to O=C(CN1CCN(c2cc3c(cc2F)c(=O)c(C(=O)O)cn3C2CC2)CC1)N/N=C/c1ccncc1 in this test?
Result block: inactive

Query block: Which outcome was assigned to Nc1c(C(=O)Nc2ccncc2)sc2nc3c(cc12)CCCCC3 in this test?
Result block: inactive

Query block: Which outcome was assigned to COc1ccc(Cl)cc1Nc1nc(C(F)(F)F)ccc1C(=O)N/N=C/c1ccccc1Cl in this test?
Result block: active

Query block: Which outcome was assigned to CC12CCC(/C(=C/NNc3ccc([N+](=O)[O-])cc3[N+](=O)[O-])C1=O)C2(C)C (stereo not given) in this test?
Result block: inactive

Query block: Which outcome was assigned to CCCC(O)Cn1ncc(C(=O)OCC)c1NC(=O)NCc1cccc(F)c1 (stereo not given) in this test?
Result block: inactive

Query block: Which outcome was assigned to COC(=O)C1=C(C(=O)Nc2cccnc2)C2OC1(C(Cc1ccccc1)Oc1ccccc1)C1OC21 (stereo not given) in this test?
Result block: inactive

Query block: Which outcome was assigned to CCCCCCOC(=O)CC1=C(C)/C(=C/c2[nH]c(-c3ccc[nH]3)cc2OC)N=C1C in this test?
Result block: active

Query block: Which outcome was assigned to CCN(CC)CCOc1nc2c3ccc(Cl)cc3nn2c2ccccc12 in this test?
Result block: active

Query block: Which outcome was assigned to C#Cc1cccc(Nc2nc3ccc([N+](=O)[O-])cc3nc2Nc2cccc(C#C)c2)c1 in this test?
Result block: active

Query block: Which outcome was assigned to COc1cc(/C=C2\CN(S(=O)(=O)c3ccc(C)cc3)C/C(=C\c3cc(CN4CCCCC4)c(O)c(OC)c3)C2=O)cc(CN2CCCCC2)c1O in this test?
Result block: active

Query block: Which outcome was assigned to CC[C@@H](c1ccc2cc(OC)ccc2c1)C(C)(C)C(=O)F in this test?
Result block: inactive

Query block: Which outcome was assigned to Cc1ccc(C)n1/C=C/n1c(C)ccc1C in this test?
Result block: inactive

Query block: Which outcome was assigned to CCN(CC)CCOc1ccc(Nc2ncc3cc(-c4ccc(O)cc4)c(=O)n(C)c3n2)cc1 in this test?
Result block: inactive

Query block: Which outcome was assigned to CC(O)c1ncc(/C=C2\SC(=S)N(Cc3ccccc3)C2=O)s1 (stereo not given) in this test?
Result block: inactive

Query block: Which outcome was assigned to CC1(C)O[C@H]2OC3CCC(=O)CC3(O)[C@H]2O1 (stereo not given in full) in this test?
Result block: inactive

Query block: Which outcome was assigned to COC(=O)/C(CCC=C(C)C)=C1\[C@@H](OC(C)=O)C[C@@]2(C)[C@H]1CC(=O)[C@H]1[C@@]3(C)CCC(N4CCCC4)[C@@H](C)[C@@H]3CC[C@@]12C (stereo not given in full) in this test?
Result block: inactive

Query block: Which outcome was assigned to O=C(CCCCNC(=O)c1cc(=O)c(O)co1)Nc1ccccc1 in this test?
Result block: inactive

Query block: Which outcome was assigned to N#Cc1nc(-c2ccc(F)cc2)oc1S(=O)(=O)N1CCN(c2ccc(F)cc2)CC1 in this test?
Result block: inactive

Query block: Which outcome was assigned to CCN(CC)c1ccc(/C=N\NC(=O)c2cccc(Nc3ccnc(C(F)(F)F)c3)c2)c(O)c1 in this test?
Result block: inactive

Query block: Which outcome was assigned to COc1ccc(Cc2nnc(Nc3nc4ccccc4s3)s2)cc1 in this test?
Result block: inactive

Query block: Which outcome was assigned to C#Cc1cccc(Oc2ccc(NC(=O)CCl)cc2)c1 in this test?
Result block: inactive

Query block: Which outcome was assigned to O=C(N/N=C/c1ccc(O)cc1O)c1ccc(Nc2ccnc(C(F)(F)F)c2)cc1 in this test?
Result block: inactive

Query block: Which outcome was assigned to CCCn1c(=S)sc2c1nc(C)n1c(Nc3ccccc3)nnc21 in this test?
Result block: inactive

Query block: Which outcome was assigned to COc1ccc(C2C3=C(COC3=O)N(CCO)c3cc4c(cc32)OCCO4)cc1OC (stereo not given) in this test?
Result block: inactive

Query block: Which outcome was assigned to CC(=O)c1c(Nc2ccc(F)c(F)c2F)[nH]c2c(F)cc(F)cc2c1=O in this test?
Result block: active

Query block: Which outcome was assigned to CCCCSCC(=O)c1ccccc1 in this test?
Result block: inactive

Query block: Which outcome was assigned to CC(C)C[C@@H](C(=O)N[C@H](C(=O)OC1CCCC1)c1ccccc1)[C@H](O)C(=O)NO in this test?
Result block: inactive

Query block: Which outcome was assigned to COc1ccc(Cc2cnc(NC(=O)c3sc4ccccc4c3Cl)s2)cc1 in this test?
Result block: inactive

Query block: Which outcome was assigned to CCN(CC)CCCC(C)Nc1ccc2cc(OC)ccc2n1 (stereo not given) in this test?
Result block: inactive

Query block: Which outcome was assigned to CN1CCN(c2ccc3c(c2)nc(NNC(=O)c2cnccn2)c2cccn23)CC1 in this test?
Result block: inactive

Query block: Which outcome was assigned to COc1cccc(C(=O)OCC(O)C(=O)NC23CC4CC(CC(C4)C2)C3)c1 (stereo not given) in this test?
Result block: inactive

Query block: Which outcome was assigned to C(/C=C/c1ccccc1)=Nc1ccc(CCc2ccc(N=C/C=C/c3ccccc3)cc2)cc1 in this test?
Result block: inactive

Query block: Which outcome was assigned to C=CC(=O)N1CCN(c2ccc3cccc(NC(=O)c4cnc(C)cn4)c3n2)CC1 in this test?
Result block: inactive

Query block: Which outcome was assigned to O=c1[nH]c(-c2ccc(Cl)cc2)cn1-c1ccc(-n2cc(-c3ccc(Cl)cc3)[nH]c2=O)cc1 in this test?
Result block: inactive

Query block: Which outcome was assigned to CCNc1nc(-c2ccc(F)cc2)c(C#N)c(=O)n1C in this test?
Result block: inactive

Query block: Which outcome was assigned to CC(/C=C1\SC(=S)N(CC(=O)NC(Cc2c[nH]c3ccccc23)C(=O)O)C1=O)=C\c1ccccc1 (stereo not given) in this test?
Result block: inactive

Query block: Which outcome was assigned to Cc1ccc(O)c(NC(=O)c2ccc(CNc3ccnc(C(F)(F)F)c3)cc2)c1 in this test?
Result block: inactive

Query block: Which outcome was assigned to N#Cc1c(NC(=O)c2cccs2)[n+]([O-])c2ccc(Cl)cc2[n+]1[O-] in this test?
Result block: inactive

Query block: Which outcome was assigned to CNC(=O)c1cc(Oc2ccc3nc(NC(=O)Nc4ccc(Cl)c(Cl)c4)sc3c2)ccn1 in this test?
Result block: inactive

Query block: Which outcome was assigned to COc1ccc(C2=NN(C(C)=O)C(c3ccc(Oc4ccnc5cc(Cl)ccc45)c(OC)c3)C2)cc1 (stereo not given) in this test?
Result block: inactive

---

Task for the reader: assign each of the following molecules its reported growth.
# System: SNB-75 CNS
# assay: NCI-60 one-dose screen, 48 h (100 = growth as untreated, 0 = no growth, -100 = all killed)
# experimental context: 10 µM unless noted
About 83,000 compounds went through this panel and 20% of them were active in at least one assay; those are over-represented in the sample as a whole. Activity calls are given as the source filed them. Rule for the calls: active = growth percent below 10; inactive = the rest.

Query block: Lab note: need growth for C=CCN=C(N)SCCCCCCSC(N)=NCC=C on SNB-75 CNS, anyone have it?
Result block: 98.8% (inactive)

Query block: Lab note: need growth for C#Cc1cccc(Oc2ccc(NC(=O)CCl)cc2)c1 on SNB-75 CNS, anyone have it?
Result block: 58.2% [8.25 µM] (inactive)

Query block: Lab note: need growth for COC(=O)c1ccc2c(c1)c1c(C)c3ccncc3c(C)c1n2C on SNB-75 CNS, anyone have it?
Result block: 22% (inactive)

Query block: Lab note: need growth for Cn1cc(-c2nonc2-c2c[nH]c3ccccc23)c2ccccc21 on SNB-75 CNS, anyone have it?
Result block: -18.2% (active)

Query block: Lab note: need growth for CC/C=C\C/C=C/C=C1/C(=O)C=C[C@@H]1C/C=C\CCCC(=O)OC on SNB-75 CNS, anyone have it?
Result block: 93.4% (inactive)

Query block: Lab note: need growth for CC[C@H](Nc1nc(N)nc(C)c1C#N)c1nc2cccc(NCCCCCC(=O)NO)c2c(=O)n1-c1ccccc1 on SNB-75 CNS, anyone have it?
Result block: 5.55% (active)

Query block: Lab note: need growth for CCOc1ccc(NC(=O)c2cc(OC)c(OC)c(OC)c2)cc1 on SNB-75 CNS, anyone have it?
Result block: 30.5% (inactive)

Query block: Lab note: need growth for CCOC(=O)CSc1nc2sc3c(c2c(=O)n1-c1ccc([N+](=O)[O-])cc1)CCCCC3 on SNB-75 CNS, anyone have it?
Result block: 11% (inactive)

Query block: Lab note: need growth for COc1cc2c(cc1O)[C@@]1(C)[C@H](c3ccccc3Br)OC(=O)N1CC2 on SNB-75 CNS, anyone have it?
Result block: 102% (inactive)

Query block: Lab note: need growth for CCCn1c(=S)sc2c1nc(C)n1c(Nc3ccccc3)nnc21 on SNB-75 CNS, anyone have it?
Result block: 102% (inactive)

Query block: Lab note: need growth for CCCCCCCCn1ccc2cc(NC(=O)Cn3cc(CN4CCCCCC4)nn3)ccc21 on SNB-75 CNS, anyone have it?
Result block: 87.5% (inactive)

Query block: Lab note: need growth for COC(=O)/C=C1/SC(=Nc2cccc(Cl)c2)N(CCc2c[nH]c3ccc(O)cc23)C1=O on SNB-75 CNS, anyone have it?
Result block: 38.7% (inactive)

Query block: Lab note: need growth for O=C(CN1CCN(c2cc3c(cc2F)c(=O)c(C(=O)O)cn3C2CC2)CC1)N/N=C/c1ccncc1 on SNB-75 CNS, anyone have it?
Result block: 89.1% (inactive)

Query block: Lab note: need growth for COc1cc(C(=O)C(=O)c2cc(OC)c(O)c(OC)c2)cc(OC)c1O on SNB-75 CNS, anyone have it?
Result block: 91.6% (inactive)

Query block: Lab note: need growth for N=C(N)c1ccc(-c2ccc(-c3ccc(F)cc3)s2)s1 on SNB-75 CNS, anyone have it?
Result block: 81% (inactive)

Query block: Lab note: need growth for Fc1ccc(CNc2c3ccccc3nc3ccccc23)cc1 on SNB-75 CNS, anyone have it?
Result block: 42.1% (inactive)

Query block: Lab note: need growth for COc1cc(-c2nc3ccc(C)cc3[nH]2)ccc1OCC(=O)N=Nc1c(O)[nH]c2ccc(Cl)cc12 on SNB-75 CNS, anyone have it?
Result block: -42.1% (active)

Query block: Lab note: need growth for CCOC(=O)C/C(=N\Nc1cc(=O)[nH]c2ccc(Cl)cc12)C(=O)OCC on SNB-75 CNS, anyone have it?
Result block: 96.7% (inactive)

Query block: Lab note: need growth for COc1cc(-c2nc(SCCC(C)C)nc(N3CCOCC3)c2C#N)cc(OC)c1OC on SNB-75 CNS, anyone have it?
Result block: 53.4% (inactive)

Query block: Lab note: need growth for CCN(CCO)CC(C)Nc1ccc([N+](=O)[O-])c2sc3ccccc3c(=O)c12 (stereo unspecified) on SNB-75 CNS, anyone have it?
Result block: 36.4% (inactive)

Query block: Lab note: need growth for O=C(O)CCCn1c(SCc2c(Cl)cccc2Cl)nc2ccsc2c1=O on SNB-75 CNS, anyone have it?
Result block: -13.8% (active)
